This collection of values is drawn from paper PMC6135396.

TEST METHOD NOTES: LogD (pH 7.4)
Format: physicochemical
MEASUREMENT TYPE: logD

# QUERY SMILES, MEASUREMENT TYPE, NUMERIC VALUE
measured = [
    ("CCN(CC)Cc1cc(Nc2ccnc3cc(Cl)ccc23)ccc1O", "logD", 2.37),
]
